Tested on: P. falciparum stage V gametocytes
Set-up: BacTiter-Glo ATP luminescence viability of purified stage V gametocytes in 384-well plates, per cent inhibition versus DMSO
Settings: 48 h, 5 µM; inhibitor
Hit rate of the full screen: of about 13,000 compounds, about 3,200 (25%) showed an effect of 50% or more. Some of the results follow.
OBSERVED PROPERTY: % Inhibition (%)
The reply should contain only the number, in %.

Study these solved cases before continuing.
- COMPOUND: "N#Cc1cccc(CN(Cc2ccc(Cl)c(Cl)c2)S(=O)(=O)c2cccc([N+](=O)[O-])c2)c1"
  % Inhibition, %: 51.09
- COMPOUND: "CC(C)(C)c1ccc(NC(=O)c2cccc(CN3CCN(Cc4cccc(O)c4)CC3)c2)cc1"
  % Inhibition, %: -36.18
- COMPOUND: "COc1ccc2c(-c3ccccc3)noc2c1"
  % Inhibition, %: 15.72
- COMPOUND: "COc1ccc(NC(=O)/C=C/c2ccccc2Cl)cc1OCCN1CCC(c2nc3ccccc3[nH]2)CC1"
  % Inhibition, %: -39.17
- COMPOUND: "O=C(Nc1cccc([N+](=O)[O-])c1)N(Cc1ccc(Cl)c(Cl)c1)C1CCNCC1"
  % Inhibition, %: 39.3
- COMPOUND: "COc1ccc(CN(C2CC2)C(C)C(=O)c2[nH]c(C)c(C(C)=O)c2C)cc1 (centres unmarked)"
  % Inhibition, %: 53.61
- COMPOUND: "CC(C)C1C(O)=C(c2ccc3ccccc3c2)C(=O)N1Cc1ccsc1 (centres unmarked)"
  % Inhibition, %: 16.73

Turning now to a further record.
In: Determine from records and report % Inhibition for O=[N+]([O-])c1cccc(CNCC2CCN(Cc3ccc(Cl)c(Cl)c3)CC2)c1
Out: 3.652

----------
Tested on: P. falciparum stage V gametocytes
Design: BacTiter-Glo ATP luminescence viability of purified stage V gametocytes in 384-well plates, per cent inhibition versus DMSO
Conditions: 48 h, 5 µM; inhibitor
About 3,200 (25%) of roughly 13,000 compounds showed an effect of 50% or more. This is one part of the list.
Would you mind labelling by % Inhibition? At or over 60% is MET, under is NOT MET.

Known results for compounds:
- COMPOUND: "CC(C)OC(=O)c1ccc(NC(=O)N[C@@H](Cc2ccc(O)cc2)C(=O)NC2CCC(CCN3C4CCC3c3ccccc34)CC2)cc1 (some centres unmarked)"
  ANSWER LABEL: "NOT MET"
- COMPOUND: "Cc1cc(NN=CC=Cc2ccccc2)c2ccccc2n1"
  ANSWER LABEL: "NOT MET"
- COMPOUND: "CCC(C)C(COC(=O)c1cc(OC)c(OC)c(OC)c1)N(C)CCN(C)C(COC(=O)c1cc(OC)c(OC)c(OC)c1)C(C)CC (centres unmarked)"
  ANSWER LABEL: "NOT MET"
- COMPOUND: "CCc1c(CCNCCCCCCNC(C)Cc2ccc3c(c2CC)OCO3)ccc(OC)c1OC (centres unmarked)"
  ANSWER LABEL: "MET"
- COMPOUND: "CCc1cc(=O)[nH]c(-n2nc(C)cc2NC(=O)CC(c2ccccc2)c2ccccc2)n1"
  ANSWER LABEL: "NOT MET"

In: Dear colleague, could you confirm whether COc1cc(C=NNc2cc(C)nc3ccccc23)cc(OC)c1OC has % Inhibition at or above 60%?
Out: NOT MET

In: Dear colleague, could you confirm whether COc1ccc2nc(C)cc(NN=Cc3cccc(Cl)c3)c2c1 has % Inhibition at or above 60%?
Out: MET

In: Dear colleague, could you confirm whether CN(C)Cc1ccc(O)c(-c2ccc(C(C)(C)C)cc2)n1 has % Inhibition at or above 60%?
Out: NOT MET

In: Dear colleague, could you confirm whether O=C(Nc1ccsc1)Nc1cccc(-c2ccc(-c3nc4ccc(C(F)(F)F)cc4[nH]3)cc2)c1 has % Inhibition at or above 60%?
Out: NOT MET

In: Dear colleague, could you confirm whether Cc1cc(-c2ccc3occ(CCN)c3c2)cnc1N has % Inhibition at or above 60%?
Out: NOT MET

In: Dear colleague, could you confirm whether Cc1cc(-c2cccc(CNC3CCN(C)CC3)c2)ccc1S(=O)(=O)NCc1ccccc1 has % Inhibition at or above 60%?
Out: NOT MET

In: Dear colleague, could you confirm whether COc1ccc2c(NN=Cc3cccc(Cl)c3)cc(C)nc2c1 has % Inhibition at or above 60%?
Out: NOT MET

In: Dear colleague, could you confirm whether CCc1c(CCNCCCCCCNC(C)(C)Cc2ccc3c(c2CC)OCO3)ccc(OC)c1OC has % Inhibition at or above 60%?
Out: MET

In: Dear colleague, could you confirm whether Cc1cc([N+](=O)[O-])ccc1NC(=O)Nc1cccc(C(F)(F)F)c1 has % Inhibition at or above 60%?
Out: NOT MET

----------
Tested on: P. falciparum stage V gametocytes
Parameters: BacTiter-Glo ATP luminescence viability of purified stage V gametocytes in 384-well plates, per cent inhibition versus DMSO
Settings: 48 h, 5 µM; inhibitor
Screen size: about 13,000 compounds; about 3,200 (25%) showed an effect of 50% or more. This is one part of the list.
Listing of entries alongside the reported % Inhibition.
Phrase the answer as number then unit, nothing more needed.

Study these solved cases before continuing.
- MOLECULE: "CN(C)CCC1CCCc2ccc(NC(=O)Nc3ccc(-c4ccncc4)c4ccccc34)cc21 (stereo not shown)"
  % Inhibition: "-24.46%"
- MOLECULE: "C=CCn1c(SCC(=O)Nc2cc(Cl)ccc2Cl)nc2sc(C)cc2c1=O"
  % Inhibition: "8.476%"
- MOLECULE: "COc1cc2nc(N3CCC(c4ccccc4)CC3)nc(NCc3ccc(=O)[nH]c3)c2cc1OC"
  % Inhibition: "-1.844%"
- MOLECULE: "O=C(c1cncc(-c2ccccc2)c1)N(Cc1cncn1Cc1ccccc1F)CC1CC1"
  % Inhibition: "14.15%"
- MOLECULE: "Cc1cc(-c2nc3cncc(-c4cccc(CN5CCCC5Cc5cccnc5)c4)c3n2C)nn1C (stereo not shown)"
  % Inhibition: "-7.326%"

In: Determine from records and report % Inhibition for CC(C)Nc1ccc(Nc2ccnc3cc4ccccc4cc23)cc1
Out: -35.26%

In: Determine from records and report % Inhibition for CCN(CC)CCNc1ccnc2ccc3ccccc3c12
Out: 5.083%

In: Determine from records and report % Inhibition for CCS(=O)(=O)c1ccc(-c2cnc3[nH]cc(-c4ccc(N)cc4)c3c2)cc1
Out: 93.29%

In: Determine from records and report % Inhibition for O=C1OC2(CCN(C(=O)c3ccc(-n4cnnn4)cc3)CC2)CN1Cc1ccc(Cl)c(Cl)c1
Out: 34.85%

In: Determine from records and report % Inhibition for NCCC(=O)Nc1ccc(-c2cnc3[nH]cc(-c4ccc(C(=O)O)cc4)c3c2)cn1
Out: 31.68%

In: Determine from records and report % Inhibition for CS(=O)(=O)Nc1cccc(-c2cnc3[nH]cc(-c4ccc(C(=O)O)c(F)c4)c3c2)c1
Out: 80.96%

In: Determine from records and report % Inhibition for CS(=O)(=O)Nc1cccc(-c2cnc3[nH]cc(-c4ccc(CN)cc4)c3c2)c1
Out: 33.32%

In: Determine from records and report % Inhibition for COc1cc2nc(NCCc3ccccc3)nc(NC(C)c3ccccc3)c2cc1OC (stereo not shown)
Out: 51.56%

In: Determine from records and report % Inhibition for Cc1cc(=O)c(-c2ccc(OCc3ccc(Cl)cc3)cc2)c(C)[nH]1
Out: 24.98%

In: Determine from records and report % Inhibition for C=C1C(C(=O)OCC)=CN(CC)c2cc(O[C@H]3CCN(C(=O)OC(C)(C)C)C3)ccc21
Out: 47.67%

----------
Listing of entries alongside the reported % Inhibition.
Tested on: P. falciparum stage V gametocytes
Set-up: BacTiter-Glo ATP luminescence viability of purified stage V gametocytes in 384-well plates, per cent inhibition versus DMSO
Details: 48 h, 5 µM; inhibitor
Out of some 13,000 compounds screened, about 3,200 (25%) showed an effect of 50% or more. Some of the results follow.
The reply should contain only the number, in %.

Study these solved cases before continuing.
- CHEMICAL STRUCTURE: "Cc1csc2nc(-c3ccccn3)nc(Nc3ccncn3)c12"
  UNIT LABEL: "%"
  DATA VALUE: 119.9
- CHEMICAL STRUCTURE: "S=C(NCCc1ccccc1)Nc1ccc2ncsc2c1"
  UNIT LABEL: "%"
  DATA VALUE: -23.08
- CHEMICAL STRUCTURE: "Cn1c2ccccc2c2c3ccccc3c(CNC(CO)(CO)CO)cc21"
  UNIT LABEL: "%"
  DATA VALUE: 1.595
- CHEMICAL STRUCTURE: "COc1ccc(-c2cccc(NC(=O)c3ccc(C#N)cc3)c2)cc1CN1CCN(C)CC1"
  UNIT LABEL: "%"
  DATA VALUE: -15.47
- CHEMICAL STRUCTURE: "COc1ccc(-c2ccc(NC(=O)c3ccc(C#N)cc3)cc2)cc1CN1CCCN(C)CC1"
  UNIT LABEL: "%"
  DATA VALUE: 41.17

In: Determine from records and report % Inhibition for CC(CO)(CO)NCc1cc2ccc3ccsc3c2c2ccccc12
Out: 1.403

In: Determine from records and report % Inhibition for COc1ccc(-c2ccc(NC(=O)c3cccs3)cc2)cc1CN1CCCN(C)CC1
Out: -9.366

In: Determine from records and report % Inhibition for CC(CO)(CO)NCc1cc2c3ccccc3c(CNC(C)(CO)CO)cc2c2ccccc12
Out: 88.47

In: Determine from records and report % Inhibition for Cc1csc2nc(-c3ccccn3)nc(Nc3ccc4ncsc4c3)c12
Out: 100.3

Ref: paper PMC4552634
